Cited source for all entries: PubChem BioAssay AID1508602

- TARGET: G-protein coupled receptor 151 (Homo sapiens)
- RUN DESCRIPTION: activators of human GPR151, primary screen, cell-based, PathHunter beta-arrestin, luminescence (AID 1508602);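 also: 0% = median of compound wells and 100% = cells with positive control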
- MEASUREMENT PARAMETERS: PathHunter beta-arrestin GPR151 cells, at 11.2 µM, stronger effect = higher value
Among all 650,000 compounds or so, about 6,800 (1%) were called active. Only a selection was taken, and actives are over-represented in it overall.
METRIC NAME: activation (%)
A number alone suffices; assume %.

COc1ccc(-c2noc(Nc3ccc(F)cc3)n2)cc1OC | -0.36

Sample CCCCc1ccc2c(N)c(C(=O)Nc3ccc(C(=O)O)cc3)sc2n1 , system: G-protein coupled receptor 151 (Homo sapiens). Its activation is -1.27

CC(C)N(CCNc1cc(N2CCOCC2)ncn1)C(C)C on G-protein coupled receptor 151 (Homo sapiens) gives activation = -0.393

Short answer on G-protein coupled receptor 151 (Homo sapiens) for CC1CCN(CC(=O)Nc2ccc(Cl)cc2)CC1 , activation: -1.21

GET /values?item= CC1CCN(CC(=O)Nc2ccccc2Cl)CC1 &system= G-protein coupled receptor 151 (Homo sapiens) returns activation: 20.2

Lab entry: G-protein coupled receptor 151 (Homo sapiens) assay, compound CC1CCCN(C(=O)NCc2noc3ccccc23)C1 (stereo unspecified) , activation = -1.14

Short answer on G-protein coupled receptor 151 (Homo sapiens) for CCC[C@@H]1NC(=O)[C@@H]2C[C@H](NCc3nc(-c4ccc(F)cc4)cs3)CN2C1=O , activation: 5.66

With G-protein coupled receptor 151 (Homo sapiens) as the test system, O=C(CNC(=O)c1ccc(NC2CC2)c([N+](=O)[O-])c1)Nc1ccc(F)c(F)c1F showed activation of 0.807

Log: G-protein coupled receptor 151 (Homo sapiens), compound CCc1ccc(S(=O)(=O)NCCOc2cc(N3CCOCC3)ncn2)cc1 , activation = 5.88

Tested on G-protein coupled receptor 151 (Homo sapiens): CC1=C(C(=O)OCC2CCCO2)C(c2ccccc2F)C2=C(CCCC2=O)N1 (stereo unspecified) . Observed activation: 0.289

The compound Cc1cc(C)cc(NC(=O)NC2CCN(CC(=O)Nc3cccc(Cl)c3C)CC2)c1 , when measured on G-protein coupled receptor 151 (Homo sapiens), yielded activation of 0.14

---

- TARGET: G-protein coupled receptor 151 (Homo sapiens)
- RUN DESCRIPTION: activators of human GPR151, primary screen, cell-based, PathHunter beta-arrestin, luminescence (AID 1508602);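 also: 0% = median of compound wells and 100% = cells with positive control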
- MEASUREMENT PARAMETERS: PathHunter beta-arrestin GPR151 cells, at 11.2 µM, stronger effect = higher value
The whole screen tested about 650,000 compounds, of which about 6,800 (1%) were called active. The list comes from a sample in which actives are over-represented; it also holds close analogues and randomly drawn compounds.
METRIC NAME: activation (%)
Provide the reading as a plain figure in %.

CC(C)(C)OC(=O)N1CCC[C@H](Cn2cc(C(=O)O)nn2)C1 | 6.74
O=C1NC2(CCN(CC(=O)N3CCCCC3)CC2)Nc2ccccc21 | -0.0006
COc1ccccc1C1C(C#N)=C(N)Oc2n[nH]c(-c3ccc4ccccc4c3)c21 (stereo not drawn) | -0.23
CN(C)C(=O)c1cc(-c2cn[nH]c2)ccc1NC(=O)OCc1ccccc1 | 0.0349
COc1cccc(C2SCC(=O)N2c2cccc(C)c2)c1OC (stereo not drawn) | 5.36

Recorded activation (molecule COc1cccc(C(=O)COC(=O)c2c3c(nc4ccccc24)CCCC3)c1 ): 1.21

The recorded activation for Cc1ccc(N=Cc2c(NCc3ccco3)nc3c(C)cccn3c2=O)cc1 is -0.949

---

Measured activation, listed per entry.
- TARGET: G-protein coupled receptor 151 (Homo sapiens)
- RUN DESCRIPTION: activators of human GPR151, primary screen, cell-based, PathHunter beta-arrestin, luminescence (AID 1508602);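 also: 0% = median of compound wells and 100% = cells with positive control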
- MEASUREMENT PARAMETERS: PathHunter beta-arrestin GPR151 cells, at 11.2 µM, stronger effect = higher value
In all, about 650,000 compounds went through this assay and about 6,800 (1%) were called active. This is one part of a sample in which actives are shown more often than they occur.
Report as a plain number; the unit % is understood.

CC(C)(C)OC(=O)N1CCC[C@H]1C(=O)c1cccnc1 | 0.241
CCCCn1c(N)c(N(CC(C)C)C(=O)CCC(=O)O)c(=O)[nH]c1=O | -0.868
COc1cc(Nc2ccnc(Nc3ccncc3)n2)cc(OC)c1OC | 1.57

Bench note, G-protein coupled receptor 151 (Homo sapiens): entry CC(C)CC(=O)N1CCc2ccccc2C1 , its activation = -1.1

Tested on G-protein coupled receptor 151 (Homo sapiens), the item COc1cc(Nc2ccnc(Nc3ccc(N4CCOCC4)cc3)n2)cc(OC)c1OC showed activation equal to 5.76

Observed activation, G-protein coupled receptor 151 (Homo sapiens), CCn1c(C)c(CCC(=O)NN2CCOCC2)c(=O)n2nc(-c3ccccc3OC)cc12 : -0.283

I looked up CC(O)Cn1c(N(C)C)nc2c1c(=O)[nH]c(=O)n2C (configuration not stated) and its activation for G-protein coupled receptor 151 (Homo sapiens) was -0.989

Reading of activation for COc1cc(C(=O)NCCC(=O)NCC2COc3ccccc3O2)cc(OC)c1OC (configuration not stated) with G-protein coupled receptor 151 (Homo sapiens): -0.141

The measured activation that Cc1cccc2cnn(CC(=O)N3CCc4ccccc4C3)c12 showed for G-protein coupled receptor 151 (Homo sapiens) is -2

# activation measured on G-protein coupled receptor 151 (Homo sapiens) for item CCN(CC)c1nc(Nc2cc(OC)c(OC)c(OC)c2)nc(N2CCOCC2)n1 = 5.49

The reported activation value, G-protein coupled receptor 151 (Homo sapiens), for Cc1ccc(/C=N/Nc2nc3c(c(=O)[nH]c(=O)n3C)n2CC(O)COC(C)C)cc1 (configuration not stated) reads -0.049

activation for G-protein coupled receptor 151 (Homo sapiens) with input COc1ccc(Br)cc1C(=O)NCC1COc2ccccc2O1 (configuration not stated) equals 5.44

Entry CCCCNc1nc2c(c(=O)[nH]c(=O)n2C)n1CC(O)COC(C)C (configuration not stated) ; assay system G-protein coupled receptor 151 (Homo sapiens); activation recorded at 0.097

Considering CCN(CC)c1nc(Nc2cc(OC)c(OC)c(OC)c2)nc(Nc2nc3ccccc3n2C)n1 , its activation with G-protein coupled receptor 151 (Homo sapiens) was recorded as -0.32

---

- TARGET: G-protein coupled receptor 151 (Homo sapiens) (UniProt Q8TDV0)
- Sequence (Q8TDV0 whole entry, looked up): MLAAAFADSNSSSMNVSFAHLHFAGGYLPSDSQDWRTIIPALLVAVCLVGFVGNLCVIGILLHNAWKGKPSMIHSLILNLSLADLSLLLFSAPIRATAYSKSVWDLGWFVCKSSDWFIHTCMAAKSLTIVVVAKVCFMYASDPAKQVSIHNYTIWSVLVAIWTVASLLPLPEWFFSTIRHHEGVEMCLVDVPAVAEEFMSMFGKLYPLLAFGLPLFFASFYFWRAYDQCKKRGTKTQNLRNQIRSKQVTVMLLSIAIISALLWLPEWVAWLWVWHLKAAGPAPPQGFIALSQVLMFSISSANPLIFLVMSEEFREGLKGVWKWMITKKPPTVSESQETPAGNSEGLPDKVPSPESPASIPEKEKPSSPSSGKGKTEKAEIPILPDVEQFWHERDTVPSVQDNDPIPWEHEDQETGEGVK
- RUN DESCRIPTION: activators of human GPR151, primary screen, cell-based, PathHunter beta-arrestin, luminescence (AID 1508602);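 also: 0% = median of compound wells and 100% = cells with positive control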
- MEASUREMENT PARAMETERS: PathHunter beta-arrestin GPR151 cells, at 11.2 µM
The campaign covered roughly 650,000 compounds. About 6,800 (1%) were called active. No stated cut-off is given here; in the data, active means activation above about 4.9%; inactive means the rest. The full list was thinned out, with actives kept by preference.
Write down one outcome, taken from TRUE = active, FALSE = inactive

Some solved entries appear below for comparison.
COc1ccc(OCC(=O)NCC(F)(F)F)c([N+](=O)[O-])c1 | FALSE
Nc1nnnn1/N=C\c1ccc(O)c(O)c1 | FALSE
COc1ccc(CCNc2nc(-c3ccccc3)nc3c2ncn3C2CCCCC2)cc1 | FALSE
C/C(=N\NC(=O)CNC(=O)c1ccccc1Br)c1ccccc1 | FALSE
O=C(COc1ccc(Br)cc1CO)NCC(F)(F)F | TRUE

Outcome logged for CCOC(=O)c1ccc(CNC(=O)c2cc(CCc3ccccc3)no2)o1 in this assay: FALSE

# lookup: test call for CC(=O)c1ccc(-c2cnc3[nH]c(=O)n(C4CCCCC4)c3n2)s1 FALSE

Entry C/C=C/C=C/C(=O)N1C(=O)C(=O)c2ccccc21 : call = ? FALSE

For this compound, state the assay outcome: COc1ccc(CN(N=Nc2nonc2C)c2nonc2C)cc1 FALSE

Dear all, I need the recorded test outcome for CCc1cc(C(=O)N2CCCCC2C)cs1 (configuration not stated) , thank you. FALSE

# outcome recorded in this test, key = O=C(CCn1nnc2ccccc21)N/N=C/c1ccc2ccccc2c1 FALSE

Recorded test call requested for Cc1cccc(OCCNC(=S)NC(=O)c2cccnc2)c1 TRUE

---

- TARGET: G-protein coupled receptor 151 (Homo sapiens) (UniProt Q8TDV0)
- RUN DESCRIPTION: activators of human GPR151, primary screen, cell-based, PathHunter beta-arrestin, luminescence (AID 1508602);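 also: 0% = median of compound wells and 100% = cells with positive control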
- MEASUREMENT PARAMETERS: PathHunter beta-arrestin GPR151 cells, at 11.2 µM, stronger effect = higher value
About 6,800 (1%) of roughly 650,000 compounds were called active. The sample holds actives, similar compounds and a random draw of the others, so the mix is not that of the screen.
# activation listing for each entry below
Express the result in % but write the number alone.

CCOC(=O)c1c(C)oc2c(Br)cc3oc(=O)c(C(=O)CC)cc3c12 | -0.749
COc1ccccc1NC(=O)C1CC12CCN(Cc1cccc(OCCO)c1)CC2 (centres undefined) | -0.488
COC(=O)c1sc(SC)nc1Nc1ccnc(Nc2ccc(N3CCOCC3)cc2OC)c1 | 0.519
Cc1ccc(Cn2c(=S)[nH]c3ccc(Cl)cc3c2=O)cc1 | 0.529
CCCCc1ccc(N=Cc2nc(-c3cccc4ccccc34)oc2O)cc1 | 7.67

COP(=O)(OC)C(OC(=O)NC(=O)C(Cl)(Cl)Cl)c1ccccc1 (centres undefined) yielded activation of 0.583

Record CCOc1ccc(NC(=O)COc2cc(C)c(Cl)c(C)c2)cc1 . Reported activation: -0.356
